target: Cannabinoid receptor 2 (Homo sapiens, UniProt P34972); assay: Radioligand Binding Assay
Sequence (P34972 whole entry): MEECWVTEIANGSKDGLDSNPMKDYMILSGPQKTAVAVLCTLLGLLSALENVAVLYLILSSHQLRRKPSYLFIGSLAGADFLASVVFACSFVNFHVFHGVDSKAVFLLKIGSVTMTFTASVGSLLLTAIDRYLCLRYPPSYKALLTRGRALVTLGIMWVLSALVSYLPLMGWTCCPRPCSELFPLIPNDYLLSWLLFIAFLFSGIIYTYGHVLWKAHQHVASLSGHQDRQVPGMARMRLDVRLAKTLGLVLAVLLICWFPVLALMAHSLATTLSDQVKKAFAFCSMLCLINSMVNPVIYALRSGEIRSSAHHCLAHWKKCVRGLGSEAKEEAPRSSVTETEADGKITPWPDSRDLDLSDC
quantity-kind: Ki

IN: Item under review: COC1CN(c2ccc(C(=O)N[C@H](COCF)CC(C)C)nc2OCC2CC2)C1 [US12071420, Example 25] . Reported Ki?
OUT: 14 nM
